Tested on: Human immunodeficiency virus 1
ASSAY DETAILS: Inhibition of HIV-1 integrase strand transfer activity assessed as reduction in viral replication in presence of 50% normal human serum
ASSAY READOUT: IP (nM)
Answers are plain numbers, in nM.

Reference set (3 entries):
> print(dat)
                                   compound  assay.readout  units  value.observed
1  O=C1c2c(c3n(c(=O)c2O)C2(CCC4CC42)N(CCN2C(=O)c4ccccc4C2=O)C3=O)CCN1Cc1ccc(F)c(Cl)c1 (stereo unspecified)             IP     nM             890
2  N#Cc1cccc2c1[C@]1(CC2)NC(=O)c2c3c(c(O)c(=O)n21)C(=O)N(Cc1ccc(F)c(Cl)c1)CC3             IP     nM              18
3  CN1C(=O)c2c3c(c(O)c(=O)n2C12CCC2)C(=O)N(Cc1ccc(F)c(Cl)c1)CC3             IP     nM             900

Batch request: IP per item, same order as input.
1. COCC(O)CN1C(=O)c2c3c(c(O)c(=O)n2C12CCC1CC12)C(=O)N(Cc1ccc(F)c(Cl)c1)CC3 (stereo unspecified)
2. CN1C(=O)c2c3c(c(O)c(=O)n2C12CCCCCC2)C(=O)N(Cc1ccc(F)c(Cl)c1)CC3
3. COCCN1C(=O)c2c3c(c(O)c(=O)n2C12CCC1CC12)C(=O)N(Cc1ccc(F)c(Cl)c1)CC3 (stereo unspecified)
4. O=C1N[C@@]2(CC[C@@H]3C[C@@H]32)n2c1c1c(c(O)c2=O)C(=O)N(Cc2ccc(F)c(Cl)c2)CC1
5. COC(C)(C)CCN1C(=O)c2c3c(c(O)c(=O)n2C12CCC1CC12)C(=O)N(Cc1ccc(F)c(Cl)c1)CC3 (stereo unspecified)

130
4800
197
88
410

State recorded IP for all listed compounds.
1. O=C1c2c(c3n(c(=O)c2O)C2(CCC4CC42)N(CCO)C3=O)CCN1Cc1ccc(F)c(Cl)c1 (stereo unspecified)
2. COc1cccc2c1[C@]1(CC2)NC(=O)c2c3c(c(O)c(=O)n21)C(=O)N(Cc1ccc(F)c(Cl)c1)CC3
3. O=C1NC2(Cc3ccccc3C2)n2c1c1c(c(O)c2=O)C(=O)N(Cc2ccc(F)c(Cl)c2)CC1

[274, 22, 1800]

Batch request: IP for each of the following compounds.
1. O=C1N[C@]2(CC[C@H]3C[C@H]32)n2c1c1c(c(O)c2=O)C(=O)N(Cc2ccc(F)c(Cl)c2)CC1
2. O=C1CC[C@@H](CN2C(=O)c3c4c(c(O)c(=O)n3C23CCC2CC23)C(=O)N(Cc2ccc(F)c(Cl)c2)CC4)N1 (stereo partly specified)
3. O=C1NC2(CCc3ccccc32)n2c1c1c(c(O)c2=O)C(=O)N(Cc2ccc(F)c(Cl)c2)CC1 (racemic)
4. Cc1cccc2c1C1(CC2)NC(=O)c2c3c(c(O)c(=O)n21)C(=O)N(Cc1ccc(F)c(Cl)c1)CC3 (racemic)
5. CO[C@H](C)CN1C(=O)c2c3c(c(O)c(=O)n2C12CCC1CC12)C(=O)N(Cc1ccc(F)c(Cl)c1)CC3 (stereo partly specified)

1. 206
2. 130
3. 190
4. 140
5. 180
